- Test system: SF-268
- Assay comment: Antiproliferative activity against human SF268 cells after 48 hrs
- Type: functional
- Assay setup: SF-268, 48 h, read-out: Log TGI (converted)
This section presents molecules with their documented TGI values.
Value expressed in µM; do not type the unit.

Example cases with answers are listed next.
- C[C@H](NC(=O)CCCCCCCCCCCCCCC[n+]1ccccc1)[C@H](O)c1ccccc1.[Br-]: 13.2
- CCCCCCCCCCCCCCN[C@H](C)[C@@H](O)c1ccccc1.Cl: 3.47
- C[C@@H](NC(=O)CCCCCCCCCCCCCCC[n+]1ccccc1)[C@@H](O)c1ccccc1.[Br-]: 3.16
- CCCCCCCCCCCCCCN[C@@H](CO)Cc1ccccc1: 3.55
- CCCCCCCCCCCCCCN[C@H](CO)[C@H](O)c1ccc([N+](=O)[O-])cc1.Cl: 4.9
- CCCCCCCCCCCCCCN[C@@H](C)[C@H](O)c1ccccc1: 3.39

Here is another molecule to look at.
Task: Entry under review: CCCCCCCCCCCCCCN[C@H](CO)[C@H](O)c1ccccc1 . Reported TGI?
Result: 3.24

====

- Test system: K562
- Assay comment: Antiproliferative activity against human K562 cells after 48 hrs
- Type: functional
- Assay setup: K562, 48 h, read-out: Log TGI (converted)
Measured endpoint: TGI (µM)
Value expressed in µM; do not type the unit.

- CCCCCCCCCCCCCCN[C@H](CO)[C@H](O)c1ccc([N+](=O)[O-])cc1.Cl: 3.8
- C[C@@H](NC(=O)CCCCCCCCCCCCCCC[n+]1ccccc1)[C@@H](O)c1ccccc1.[Br-]: 3.98
- C[C@H](NC(=O)CCCCCCCCCCCCCCC[n+]1ccccc1)[C@H](O)c1ccccc1.[Br-]: 15.8

Task: Entry under review: CCCCCCCCCCCCCCN[C@H](C)[C@@H](O)c1ccccc1.Cl . Reported TGI?
Result: 2.82

Task: Entry under review: CCCCCCCCCCCCCCN[C@@H](CO)Cc1ccccc1 . Reported TGI?
Result: 4.07

Task: Entry under review: CCCCCCCCCCCCCCN[C@H](CO)[C@H](O)c1ccccc1 . Reported TGI?
Result: 4.9

Task: Entry under review: CCCCCCCCCCCCCCN[C@@H](C)[C@H](O)c1ccccc1 . Reported TGI?
Result: 3.55

====

- System: T47D
- Assay comment: Antiproliferative activity against human T47D cells after 48 hrs
- Type: functional
Label key: 1 means GI50 under 2000 nM; -1 means GI50 of 2000 nM or more.

* C[C@H](NC(=O)CCCCCCCCCCCCCCC[n+]1ccccc1)[C@H](O)c1ccccc1.[Br-] | 1
* CCCCCCCCCCCCCCN[C@H](CO)[C@H](O)c1ccccc1 | 1
* CCCCCCCCCCCCCCN[C@@H](C)[C@H](O)c1ccccc1 | -1
* CCCCCCCCCCCCCCN[C@H](CO)[C@H](O)c1ccc([N+](=O)[O-])cc1.Cl | -1
* CCCCCCCCCCCCCCN[C@H](C)[C@@H](O)c1ccccc1.Cl | -1

Task: API: query returns whether the compound falls strictly under 2000 nM in GI50. Query: CCCCCCCCCCCCCCN[C@@H](CO)Cc1ccccc1
Result: 1

Task: API: query returns whether the compound falls strictly under 2000 nM in GI50. Query: C[C@@H](NC(=O)CCCCCCCCCCCCCCC[n+]1ccccc1)[C@@H](O)c1ccccc1.[Br-]
Result: 1
